assay: A CellTox Green Cytotoxicity Assay to monitor cytotoxicity in HEK293 cells - 40 hour (AID 1224871); settings: CellTox Green fluorescence; series mostly up to 76.8 µM; further: nearly all actives have a fitted effect of over 45% in size
Inconclusive results are not listed. Activity calls are given as the source filed them. The call rests on the fitted dose curve; in most records, active means well fitted activation curve with a large enough effect in the repeat runs; inconclusive means weak or mixed curves; inactive means flat fitted curve, though single readings scatter.
Possible outcomes: active, inactive

smiles notation | discrete label
NC(N)=NN=C(/C=C/c1ccc([N+](=O)[O-])o1)/C=C/c1ccc([N+](=O)[O-])o1 | active
O=C(O)Cn1c(C(=O)Nc2nc(-c3ccccc3Cl)cs2)cc2ccccc21 | inactive
CN(C)CC/C=C1\c2ccccc2COc2ccccc21 | inactive

* * *

experiment: qHTS assay to identify small molecule antagonists of the thyroid receptor (TR) signaling pathway - cell viability counter screen (AID 743064); conditions: GH3.TRE-Luc viability, CellTiter-Fluor, 24 h; series mostly up to 70.3 µM; further: nearly all actives have a fitted effect of over 50% in size
Inconclusive results are not listed. Calls of active or inactive are those of the source. The call rests on the fitted dose curve; in most records, active means well fitted cell-killing curve with a large enough effect in the repeat runs; inconclusive means weak or mixed curves, or effect the other way; inactive means no such curve, though single readings can be large or run the other way.
Outcome codes: active, inactive

smiles notation | discrete label
NCc1ccccc1 | inactive
Cc1cccc(OCCOc2cccc(C)c2)c1 | inactive
NC(N)=NN=C(/C=C/c1ccc([N+](=O)[O-])o1)/C=C/c1ccc([N+](=O)[O-])o1 | active
CN(C)C/C=C(/c1ccc(Br)cc1)c1cccnc1 | active
N#CCCNCCC#N | inactive

* * *

Test: qHTS assay to identify small molecule agonists of the estrogen related receptor (ERR) signaling pathway from Tox21 library (AID 1224849); further: nearly all actives have a fitted effect of over 15% in size
Details: ERR reporter cell line, ONE-Glo luciferase, 18 h; at 92.4 µM (top of the series) unless noted
Method: National Center for Advancing Translational Sciences [NCATS] NIH Chemical Genomics Center [NCGC] U.S. Environmental Protection Agency [EPA] National Institutes of Environmental Health Sciences [NIEHS] National Toxicology Program [NTP] […] The ERR cells were dispensed at 2,000 cells/5 ul/well in 1536-well white plates using a Multidrop dispenser. […] After 30-minute incubation at room temperature, the luminescence intensity in the plates was measured using a ViewLux plate reader.
Calls of active or inactive are those of the source. Calls come from the whole dose curve.
Labels: T = active, F = inactive

molecule | discrete label
O=C(CC(=O)c1ccccc1)c1ccccc1 | T
CCN(CC)CCNC(C(=O)OCCC(C)C)c1ccccc1 (stereo not given) | F
O=C(CCN1CCN2CCCC2C1)N1c2ccccc2Sc2ccc(Cl)cc21 (stereo not given) | F
CCOc1ccc2[nH]cc(C(=O)NCc3ccccc3)c(=O)c2n1 | F
CC(C)NCC(O)c1cc(O)cc(O)c1 (stereo not given) | F
CC(C)(C)c1ccc(OCC2CO2)cc1 (stereo not given) | F
CC(=O)N(CC(=O)N(C)C)c1ccccc1 | F
Nc1ccc(C(=O)Nc2ccccc2N)cc1 | T
CC(=O)CC(=O)c1ccccc1 | F
C#CCOC(=O)[C@@H](C)Oc1ccc(Oc2ncc(Cl)cc2F)cc1 | F
CCOc1nc2cccc(C(=O)O)c2n1Cc1ccc(-c2ccccc2-c2nn[nH]n2)cc1 | F
O=C(O)Cc1sc(-c2ccccc2)nc1-c1ccc(Cl)cc1 | F
Nc1nc(CC(=O)O)cs1 | F
CCCCCCCCCO | F
CCCC[C@H]1CN(CC2CCOCC2)C(=O)OC12CCN(C1(C)CCN(C(=O)c3c(C)ncnc3C)CC1)CC2 | F
CN(C(=O)CCCOc1ccc2[nH]c(=O)ccc2c1)C1CCCCC1 | F
Nc1nc(N)c(-c2ccccc2)s1 | F
COC(=O)C(C)=O | F
CN(C)CCCOc1nn(Cc2ccccc2)c2ccccc12 | F
O=C(O)[C@@H]1[C@H]2C[C@H]3c4[nH]c5ccccc5c4CCN3C[C@@H]2CC[C@@H]1O | F
CCCCC(CC)COCCCN (stereo not given) | F
O=C(O)c1cccc(N(Cc2cccnc2)c2ccc(OC(F)F)c(OC(F)F)c2)c1 | F
Cc1cc(CC(=O)O)c(C)n1-c1ccc(Cl)cc1 | F
CC/C(=C\C(=N/O)C(N)=O)C(C)[N+](=O)[O-] (stereo not given) | F
CCCCCC(CO)CCC (stereo not given) | F
CC(C)(C)c1cc(CO)cc(C(C)(C)C)c1O | F
OCC1CC2CC1C1CCC(CO)C21 (stereo not given) | F
C=CC(=O)OCCOC(=O)CCC(=O)O | T
CC[C@]12CCCN3CCc4c(n(c5ccccc45)C(=O)C1)[C@@H]32 | F
CCCCCC/C=C/C=O | F
CCC(=O)OC(C)(C)C1CC=C(C)CC1 (stereo not given) | F
CCN(CC)CCOc1ccc2c(c1)C(=O)c1cc(OCCN(CC)CC)ccc1-2 | F
NC(=S)N/N=C/c1cccnc1 | F
O=C(O)C(c1ccc(Cl)cc1)c1ccc(Cl)cc1 | F
CN1CCC(=C2c3ccccc3C=Cc3ccccc32)CC1 | F
Cn1c(=O)c2c(ncn2CC(O)CO)n(C)c1=O (stereo not given) | F
Cc1ccccn1 | F
CCCCCCCCN(C)C | F
O=C(C(=O)c1ccc(Br)cc1)c1ccc(Br)cc1 | F
CCCCCOC(=O)c1ccc(O)cc1 | T
Cl/C(=C\n1cncn1)c1ccc(Cl)cc1Cl | F
Cc1ccccc1N=Nc1ccc(N=Nc2c(O)ccc3ccccc23)c(C)c1 | F
c1ccc(OCc2ccc(CCCN3CCOCC3)cc2)cc1 | F
NC(N)=N/N=C/c1c(Cl)cccc1Cl | F
CCc1nn(C2CCCCC2)c2cc(C3(C#N)CCC(C(=O)O)CC3)ccc12 (stereo not given) | F
CC(=O)[C@@]1(O)CC[C@H]2[C@@H]3C[C@H](C)C4=CC(=O)CC[C@]4(C)[C@H]3CC[C@@]21C | F
CC(=O)OC/C=C/c1ccccc1 | F
CC(C)(C)C(=O)OCOP(=O)(COCCn1cnc2c(N)ncnc21)OCOC(=O)C(C)(C)C | F
Oc1ccc(Cc2ccccc2)cc1 | F
CC(O)C1CCCCC1 (stereo not given) | F

The origin of these recorded values is PubChem BioAssay (Tox21).
